For each record, write down the corresponding pIC50.
- Target Desc: human CTPS1 (Homo sapiens, UniProt P17812)
- Sequence (P17812 whole entry): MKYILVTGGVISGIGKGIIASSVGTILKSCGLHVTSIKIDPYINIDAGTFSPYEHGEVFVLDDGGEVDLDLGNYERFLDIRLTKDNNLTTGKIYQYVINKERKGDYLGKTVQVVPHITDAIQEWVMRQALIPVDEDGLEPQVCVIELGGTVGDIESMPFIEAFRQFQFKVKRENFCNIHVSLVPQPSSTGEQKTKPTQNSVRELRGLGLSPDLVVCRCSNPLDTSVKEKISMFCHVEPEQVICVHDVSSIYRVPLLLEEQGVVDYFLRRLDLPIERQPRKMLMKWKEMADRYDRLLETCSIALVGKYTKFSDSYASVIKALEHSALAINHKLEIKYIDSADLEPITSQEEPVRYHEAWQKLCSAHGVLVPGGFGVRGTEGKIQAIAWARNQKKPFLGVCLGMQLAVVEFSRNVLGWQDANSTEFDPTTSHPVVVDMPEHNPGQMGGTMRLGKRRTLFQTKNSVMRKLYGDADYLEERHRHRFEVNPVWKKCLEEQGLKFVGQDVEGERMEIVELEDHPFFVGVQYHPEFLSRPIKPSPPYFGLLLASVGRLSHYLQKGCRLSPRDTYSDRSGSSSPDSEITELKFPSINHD
- Assay Text: ADP-Glo assay, human CTPS1 enzyme inhibition
- Format: biochemical
- Condition Context: wild-type human CTPS1, 25 nM enzyme; ADP-Glo; read-out: ADP-Glo_WT_hCTPS1—25 nM_IC50 (IC50)
pIC50: −log10 of the molar value.

CCOc1cncc(-c2cnc(C(=O)N[C@H](c3cccc(NS(=O)(=O)C(F)F)c3)[C@H](C)CO)s2)n1 [I-242]	≥ 8.30
CCOc1cncc(-c2cnc(C(=O)N(C)[C@@H](c3cc(NS(=O)(=O)C4CC4)ccn3)[C@H]3CCOC3)s2)n1 [I-65]	< 7.00
CCOc1cncc(-c2cnc(C(=O)N[C@@H](c3cccc(NS(=O)(=O)C(F)F)c3)[C@H](C)CO)s2)n1 [I-245]	≥ 8.30
CCOc1cncc(-c2cnc(C(=O)NCc3cc(NS(=O)(=O)C4CC4)ncn3)s2)n1 [I-5]	7.60 to 8.30

Could I get pIC50 for every one of these entries?
1. CCOc1cncc(-c2cnc(C(=O)N[C@H](CN3CC[C@@](C)(O)C3)c3cccc(NS(=O)(=O)C(F)F)c3)s2)n1 [I-207]
2. CCOc1cncc(-c2cnc(C(=O)N[C@H](Cn3nccn3)c3cc(NS(=O)(=O)C4CC4)ccn3)s2)n1 [I-158]
3. CCOc1cncc(-c2ccc(C(=O)NCc3cc(NS(=O)(=O)C4CC4)ccn3)c(F)c2F)n1 [I-175]

1. 7.30 to 7.60
2. 7.60 to 8.30
3. 7.60 to 8.30
